- MEASURED ON: UniProtKB P18089
- Sequence (P18089 1-450): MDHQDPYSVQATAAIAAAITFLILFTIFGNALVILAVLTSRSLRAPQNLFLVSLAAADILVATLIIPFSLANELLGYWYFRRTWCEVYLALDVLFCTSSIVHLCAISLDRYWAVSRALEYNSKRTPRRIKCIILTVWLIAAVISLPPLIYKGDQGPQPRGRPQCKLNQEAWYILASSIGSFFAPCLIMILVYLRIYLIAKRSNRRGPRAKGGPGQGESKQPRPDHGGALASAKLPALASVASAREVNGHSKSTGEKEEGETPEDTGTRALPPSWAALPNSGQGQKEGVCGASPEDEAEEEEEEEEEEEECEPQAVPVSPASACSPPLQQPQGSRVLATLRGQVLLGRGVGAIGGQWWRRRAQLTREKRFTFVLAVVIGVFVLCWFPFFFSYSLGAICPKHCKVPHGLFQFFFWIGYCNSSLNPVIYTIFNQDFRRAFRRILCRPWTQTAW
- METHOD: Radioligand binding assay (NIMH PDSP)
- CONDITION NOTES: secondary screen, binding competition curve
pKi: −log10 of the molar value.

>  <COMPOUND>
CS(=O)(=O)Nc1ccc(OC[C@@H](O)CN2CCN(c3ccc(F)c(F)c3)CC2)cc1 [EU93-108]

>  <MEASURED ON>
UniProtKB P18089

>  <pKi>
6.14

$$$$
